# testSummary: SOD activity by the cytochrome c method (xanthine/xanthine oxidase)
# Format: biochemical
# conditionSummary: pH 7.8, 25° C., metalloporphyrin concentration
assayEndpoint: IC50 (nM)
Please state the figure in nM; there is no need to write the unit.

Entry `C[n+]1ccc(-c2c3nc(c(-c4cc[n+](C)cc4)c4ccc([n-]4)c(-c4cc[n+](C)cc4)c4nc(c(-c5cc[n+](C)cc5)c5ccc2[n-]5)C=C4)C=C3)cc1.[Mn+2]` — recorded IC50 = 430
